Consider the following variants and their measured ratio to parent readings.
B1: C-terminal FLAG-tagged WT ZYG11B [human] / Strep-tagged NLRP1, C-terminal fragment generated by 3C cleavage (begins at G131) [human] (parent complex)
chain 1: PEDQAGAAMEEASPYSLLDICLNFLTTHLEKFCSARQDGTLCLQEPGVFPQEVADRLLRTMAFHGLLNDGTVGIFRGNQMRLKRACIRKAKISAVAFRKAFCHHKLVELDATGVNADITITDIISGLGSNKWIQQNLQCLVLNSLTLSLEDPYERCFSRLSGLRALSITNVLFYNEDLAEVASLPRLESLDISNTSITDITALLACKDRLKSLTMHHLKCLKMTTTQILDVVRELKHLNHLDISDDKQFTSDIALRLLEQKDILPNLVSLDVSGRKHVTDKAVEAFIQQRPSMQFVGLLATDAGYSEFLTGEGHLKVSGEANETQIAEALKRYSERAFFVREALFHLFSLTHVMEKTKPEILKLVVTGMRNHPMNLPVQLAASACVFNLTKQDLAAGMPVRLLADVTHLLLKAMEHFPNHQQLQKNCLLSLCSDRILQDVPFNRFEAAKLVMQWLCNHEDQNMQRMAVAIISILAAKLSTEQTAQLGTELFIVRQLLQIVKQKTNQNSVDTTLKFTLSALWNLTDESPTTCRHFIENQGLELFMRVLESFPTESSIQQKVLGLLNNIAEVQELHSELMWKDFIDHISSLLHSVEVEVSYFAAGIIAHLISRGEQAWTLSRSQRNSLLDDLHSAILKWPTPECEMVAYRSFNPFFPLLGCFTTPGVQLWAVWAMQHVCSKNPSRYCSMLIEEGGLQHLYNIKDHEHTDPHVQQIAVAILDSLEKHIVRHGRPPPCKKQPQARLN
chain 2: GSERRVLRQLPDTSGRRWREISASLLYQALPSSPDHESPSQESPNAPTSTAVLGSWGSPPQPSLAPREQEAPGTQWPLDETSGIYYTEIREREREKSEKGRPPWAAVVGTPPQAHTSLQPHHHPWEPSVRESLCSTWPWKNEDFNQKFTQLLLLQRPHPRSQDPLVKRSWPDYVEENRGHLIEIRDLFGPGLDTQEPRIVILQGAAGIGKSTLARQVKEAWGRGQLYGDRFQHVFYFSCRELAQSKVVSLAELIGKDGTATPAPIRQILSRPERLLFILDGVDEPGWVLQEPSSELCLHWSQPQPADALLGSLLGKTILPEASFLITARTTALQNLIPSLEQARWVEVLGFSESSRKEYFYRYFTDERQAIRAFRLVKSNKELWALCLVPWVSWLACTCLMQQMKRKEKLTLTSKTTTTLCLHYLAQALQAQPLGPQLRDLCSLAAEGIWQKKTLFSPDDLRKHGLDGAIISTFLKMGILQEHPIPLSYSFIHLCFQEFFAAMSYVLEDEKGRGKHSNCIIDLEKTLEAYGIHGLFGASTTRFLLGLLSDEGEREMENIFHCRLSQGRNLMQWVPSLQLLLQPHSLESLHCLYETRNKTFLTQVMAHFEEMGMCVETDMELLVCTFCIKFSRHVKKLQLIEGRQHRSTWSPTMVVLFRWVPVTDAYWQILFSVLKVTRNLKELDLSGNSLSHSAVKSLCKTLRRPRCLLETLRLAGCGLTAEDCKDLAFGLRANQTLTELDLSFNVLTDAGAKHLCQRLRQPSCKLQRLQLVSCGLTSDCCQDLASVLSASPSLKELDLQQNNLDDVGVRLLCEGLRHPACKLIRLGLDQTTLSDEMRQELRALEQEKPQLLIFSRRKPSVMTPTEGLDTGEMSNSTSSLKRQRLGSERAASHVAQANLKLLDVSKIFPIAEIAEESSPEVVPVELLCVPSPASQGDLHTKPLGTDDDFWGPTGPVATEVVDKEKNLYRVHFPVAGSYRWPNTGLCFVMREAVTVEIEFCVWDQFLGEINPQHSWMVAGPLLDIKAEPGAVEAVHLPHFVALQGGHVDTSLFQMAHFKEEGMLLEKPARVELHHIVLENPSFSPLGVLLKMIHNALRFIPVTSVVLLYHRVHPEEVTFHLYLIPSDCSIRKAIDDLEMKFQFVRIHKPPPLTPLYMGCRYTVSGSGSGMLEILPKELELCYRSPGEDQLFSEFYVGHLGSGIRLQVKDKKDETLVWEALVKPGDLMPATTLIPPARIAVPSPLDAPQLLHFVDQYREQLIARVTSVEVVLDKLHGQVLSQEQYERVLAENTRPSQMRKLFSLSQSWDRKCKDGLYQALKETHPHLIMELWEKGSKKGLLPLSS

Variants of: B1
Test: coIP with western blot quantification; HEK293T cells, transfected for 48 h, with 3C protease; read off a plot

Solved entries (count: 4):
chain 1 F515A | ~0.85
chain 1 W521A | ~0.05
chain 1 E643K | ~0.5
chain 1 R465A | ~0.27

*Q* Report ratio to parent for chain 1 N566A
*A* ~0.08

*Q* Fill in reported ratio to parent for this entry: chain 1 D525A
*A* ~0.05

*Q* Specify reported ratio to parent for the variant shown: chain 1 Y684A
*A* ~0.51

*Q* Input chain 1 K514E , output reported ratio to parent.
*A* ~1.1

*Q* Check the records and state ratio to parent for chain 1 E569A
*A* ~0.05

*Q* Find the measured ratio to parent of chain 1 D434K and report it.
*A* ~0.94
